molecular target: UniProt O35492; assay: Inhibition of mouse recombinant GST-tagged CLK3 expressed in Escherichia coli using GRSRSRSRSRSR as substrate and [gamma33P]ATP after 30 mins by scintillation counting
Sequence (O35492 whole entry): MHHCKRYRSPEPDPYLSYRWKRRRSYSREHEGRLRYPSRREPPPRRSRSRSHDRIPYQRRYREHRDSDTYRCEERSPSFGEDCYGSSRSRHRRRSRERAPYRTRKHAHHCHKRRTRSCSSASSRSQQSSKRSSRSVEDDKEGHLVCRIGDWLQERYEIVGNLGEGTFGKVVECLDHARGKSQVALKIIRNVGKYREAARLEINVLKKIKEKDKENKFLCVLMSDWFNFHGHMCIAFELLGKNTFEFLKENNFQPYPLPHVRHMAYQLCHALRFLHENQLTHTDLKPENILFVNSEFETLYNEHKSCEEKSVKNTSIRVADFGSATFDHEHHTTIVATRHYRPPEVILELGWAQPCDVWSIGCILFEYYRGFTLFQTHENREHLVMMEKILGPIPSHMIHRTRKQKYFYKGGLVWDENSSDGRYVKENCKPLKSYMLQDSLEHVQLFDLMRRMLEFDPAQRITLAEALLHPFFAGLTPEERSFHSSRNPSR
pIC50: −log10 of the molar value.
Measured pIC50, listed per entry.

Worked cases, answers included:
COc1ccc2c(c1)[nH]c1c(C)nccc12 [HARMINE] : < 5.00
O=C1NC(Nc2ccccc2)=N/C1=C\c1ccc2c(c1)OCO2 : < 5.00

Alright, here's another molecule for you.
# input For the molecule shown here, CN1C(=O)/C(=C/c2ccc3c(c2)OCO3)N=C1N [LEUCETTAMINE B] , give the reported pIC50.
# output 5.74

====

target: Dual specificity tyrosine-phosphorylation-regulated kinase 1A (Rattus norvegicus, UniProt Q63470); assay: Inhibition of rat DYRK1A isolated from brain using KKISGRLSPIMTEQ as substrate and [gamma33P]ATP after 30 mins by scintillation counting
measured quantity: IC50 (nM)
Just the number in nM, nothing appended.

CN1C(=O)/C(=C/c2ccc3c(c2)OCO3)N=C1N : 900

Alright, here's another molecule for you.
# input For the molecule shown here, "O=C1NC(Nc2ccccc2)=N/C1=C\c1ccc2c(c1)OCO2" , give the reported IC50.
# output 10

====

biological target: UniProtKB P49761
Sequence (P49761 whole entry): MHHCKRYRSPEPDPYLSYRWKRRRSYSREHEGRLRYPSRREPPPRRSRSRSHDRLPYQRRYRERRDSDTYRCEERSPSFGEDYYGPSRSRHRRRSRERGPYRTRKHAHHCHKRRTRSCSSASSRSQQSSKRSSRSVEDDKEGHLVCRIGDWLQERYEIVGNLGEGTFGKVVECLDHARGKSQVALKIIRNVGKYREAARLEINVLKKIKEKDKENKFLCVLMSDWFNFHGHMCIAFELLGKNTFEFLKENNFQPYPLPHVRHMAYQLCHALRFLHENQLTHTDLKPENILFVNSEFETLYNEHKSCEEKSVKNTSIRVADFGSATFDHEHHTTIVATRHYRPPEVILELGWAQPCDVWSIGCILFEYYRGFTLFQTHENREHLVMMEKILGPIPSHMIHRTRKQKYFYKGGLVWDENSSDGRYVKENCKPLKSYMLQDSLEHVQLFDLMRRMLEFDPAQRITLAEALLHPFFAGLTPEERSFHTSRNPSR
measured quantity: pKd
Conceptually, pKd converts a concentration in mol/L into minus its log10.

# input For the compound shown here, "O=C1NC(Nc2ccccc2)=N/C1=C\c1ccc2c(c1)OCO2" , give the reported pKd.
# output 5.96

====

biological target: Casein kinase II (Homo sapiens, UniProt P19784+P67870+P68400); assay: Inhibition of human recombinant CK2 using RRREDEESDDEE as substrate and [gamma33P]ATP after 30 mins by scintillation counting
Sequence (P67870 whole entry): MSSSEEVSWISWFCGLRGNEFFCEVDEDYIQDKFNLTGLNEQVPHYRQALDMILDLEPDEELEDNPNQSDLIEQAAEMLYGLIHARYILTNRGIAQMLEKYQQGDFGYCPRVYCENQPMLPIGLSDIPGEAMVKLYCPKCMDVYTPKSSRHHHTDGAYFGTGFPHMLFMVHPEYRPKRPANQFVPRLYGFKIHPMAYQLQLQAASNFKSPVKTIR
Sequence (P68400 whole entry): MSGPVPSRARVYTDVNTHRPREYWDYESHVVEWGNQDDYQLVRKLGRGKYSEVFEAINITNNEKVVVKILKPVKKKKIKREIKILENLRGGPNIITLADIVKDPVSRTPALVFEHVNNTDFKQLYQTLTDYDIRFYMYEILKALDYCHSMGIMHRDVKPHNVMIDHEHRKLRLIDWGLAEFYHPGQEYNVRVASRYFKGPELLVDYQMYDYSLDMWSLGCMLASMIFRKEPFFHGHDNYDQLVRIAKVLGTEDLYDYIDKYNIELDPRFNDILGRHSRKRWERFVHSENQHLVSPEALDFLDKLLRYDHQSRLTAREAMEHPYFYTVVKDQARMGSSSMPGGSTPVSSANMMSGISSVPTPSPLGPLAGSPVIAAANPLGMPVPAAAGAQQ
Sequence (P19784 whole entry): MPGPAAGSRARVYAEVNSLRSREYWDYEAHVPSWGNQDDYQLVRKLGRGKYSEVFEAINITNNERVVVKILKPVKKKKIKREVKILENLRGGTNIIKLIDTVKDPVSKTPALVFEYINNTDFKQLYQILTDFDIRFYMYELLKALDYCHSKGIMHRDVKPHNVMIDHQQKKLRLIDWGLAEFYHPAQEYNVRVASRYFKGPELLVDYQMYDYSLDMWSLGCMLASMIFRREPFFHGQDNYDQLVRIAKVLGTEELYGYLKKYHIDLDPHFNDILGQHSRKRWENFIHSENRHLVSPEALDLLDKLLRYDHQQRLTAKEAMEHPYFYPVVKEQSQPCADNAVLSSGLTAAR
measured quantity: IC50 (nM)
Just the number in nM, nothing appended.

# input For the compound shown here, "O=C1NC(Nc2ccccc2)=N/C1=C\c1ccc2c(c1)OCO2" , give the reported IC50.
# output 320

====

molecular target: Mitogen-activated protein kinase 1 (Rattus norvegicus); assay: Inhibition of rat recombinant ERK2 using Ets1 as substrate and [gamma33P]ATP as substrate after 30 mins by scintillation counting
Sequence (P63086 whole entry): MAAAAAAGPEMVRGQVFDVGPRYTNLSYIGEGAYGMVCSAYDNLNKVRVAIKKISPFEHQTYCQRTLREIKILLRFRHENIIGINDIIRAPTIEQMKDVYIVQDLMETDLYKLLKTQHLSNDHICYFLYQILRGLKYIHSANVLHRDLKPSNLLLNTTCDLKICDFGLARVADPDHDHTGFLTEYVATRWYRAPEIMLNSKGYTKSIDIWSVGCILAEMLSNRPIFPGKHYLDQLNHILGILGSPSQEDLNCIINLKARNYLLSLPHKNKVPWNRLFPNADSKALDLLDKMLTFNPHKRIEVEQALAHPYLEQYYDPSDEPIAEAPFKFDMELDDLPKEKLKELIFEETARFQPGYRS
measured quantity: IC50

Worked cases, answers included:
O=C1NC(Nc2ccccc2)=N/C1=C\c1ccc2c(c1)OCO2 : > 30 µM
COc1ccc2c(c1)[nH]c1c(C)nccc12 : > 30 µM

Alright, here's another compound for you.
# input Test system Mitogen-activated protein kinase 1 (Rattus norvegicus); read-out IC50; what value for "CN1C(=O)/C(=C/c2ccc3c(c2)OCO3)N=C1N" ?
# output > 10 µM

====

target: Glycogen synthase kinase-3 alpha (Homo sapiens, UniProt P49840)
measured quantity: pKd
Conceptually, pKd converts a concentration in mol/L into minus its log10.

# input For the compound shown here, "O=C1NC(Nc2ccccc2)=N/C1=C\c1ccc2c(c1)OCO2" , give the reported pKd.
# output 6.26

====

target: Glycogen synthase kinase-3 beta (Homo sapiens, UniProt P49841); assay: Inhibition of human recombinant GSK3beta expressed in insect cells using YRRAAVPPSPSLSRHSSPHQ-phosphoS-EDEEE as substrate and [gamma33P]ATP after 30 mins by scintillation counting
Sequence (P49841 whole entry): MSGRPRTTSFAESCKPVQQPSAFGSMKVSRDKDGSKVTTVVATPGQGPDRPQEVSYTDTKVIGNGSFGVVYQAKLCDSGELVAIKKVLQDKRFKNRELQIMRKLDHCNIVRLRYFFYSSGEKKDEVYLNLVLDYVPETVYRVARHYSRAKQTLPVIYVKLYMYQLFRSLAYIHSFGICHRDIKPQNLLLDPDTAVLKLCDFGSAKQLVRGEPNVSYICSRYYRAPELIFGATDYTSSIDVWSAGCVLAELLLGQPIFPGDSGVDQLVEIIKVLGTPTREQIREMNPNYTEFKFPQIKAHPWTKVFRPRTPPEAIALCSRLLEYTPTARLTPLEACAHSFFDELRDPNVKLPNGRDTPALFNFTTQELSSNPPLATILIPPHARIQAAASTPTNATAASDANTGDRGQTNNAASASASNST
measured quantity: pIC50
Conceptually, pIC50 converts a concentration in mol/L into minus its log10.

# input Test system Glycogen synthase kinase-3 beta (Homo sapiens, UniProt P49841); read-out pIC50; what value for "O=C1NC(Nc2ccccc2)=N/C1=C\c1ccc2c(c1)OCO2" ?
# output 6.42

====

experiment: Inhibition of Plasmodium falciparum recombinant GSK3 expressed in Escherichia coli using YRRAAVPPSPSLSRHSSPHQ-phosphoS-EDEEE as substrate and [gamma33P]ATP after 30 mins by scintillation counting
Measured IC50, listed per entry.

O=C1NC(Nc2ccccc2)=N/C1=C\c1ccc2c(c1)OCO2 : > 10 µM

Alright, here's another compound for you.
# input For the compound shown here, COc1ccc2c(c1)[nH]c1c(C)nccc12 [HARMINE] , give the reported IC50.
# output > 10 µM

====

target: Homeodomain-interacting protein kinase 3 (Homo sapiens)
Sequence (Q9H422 whole entry): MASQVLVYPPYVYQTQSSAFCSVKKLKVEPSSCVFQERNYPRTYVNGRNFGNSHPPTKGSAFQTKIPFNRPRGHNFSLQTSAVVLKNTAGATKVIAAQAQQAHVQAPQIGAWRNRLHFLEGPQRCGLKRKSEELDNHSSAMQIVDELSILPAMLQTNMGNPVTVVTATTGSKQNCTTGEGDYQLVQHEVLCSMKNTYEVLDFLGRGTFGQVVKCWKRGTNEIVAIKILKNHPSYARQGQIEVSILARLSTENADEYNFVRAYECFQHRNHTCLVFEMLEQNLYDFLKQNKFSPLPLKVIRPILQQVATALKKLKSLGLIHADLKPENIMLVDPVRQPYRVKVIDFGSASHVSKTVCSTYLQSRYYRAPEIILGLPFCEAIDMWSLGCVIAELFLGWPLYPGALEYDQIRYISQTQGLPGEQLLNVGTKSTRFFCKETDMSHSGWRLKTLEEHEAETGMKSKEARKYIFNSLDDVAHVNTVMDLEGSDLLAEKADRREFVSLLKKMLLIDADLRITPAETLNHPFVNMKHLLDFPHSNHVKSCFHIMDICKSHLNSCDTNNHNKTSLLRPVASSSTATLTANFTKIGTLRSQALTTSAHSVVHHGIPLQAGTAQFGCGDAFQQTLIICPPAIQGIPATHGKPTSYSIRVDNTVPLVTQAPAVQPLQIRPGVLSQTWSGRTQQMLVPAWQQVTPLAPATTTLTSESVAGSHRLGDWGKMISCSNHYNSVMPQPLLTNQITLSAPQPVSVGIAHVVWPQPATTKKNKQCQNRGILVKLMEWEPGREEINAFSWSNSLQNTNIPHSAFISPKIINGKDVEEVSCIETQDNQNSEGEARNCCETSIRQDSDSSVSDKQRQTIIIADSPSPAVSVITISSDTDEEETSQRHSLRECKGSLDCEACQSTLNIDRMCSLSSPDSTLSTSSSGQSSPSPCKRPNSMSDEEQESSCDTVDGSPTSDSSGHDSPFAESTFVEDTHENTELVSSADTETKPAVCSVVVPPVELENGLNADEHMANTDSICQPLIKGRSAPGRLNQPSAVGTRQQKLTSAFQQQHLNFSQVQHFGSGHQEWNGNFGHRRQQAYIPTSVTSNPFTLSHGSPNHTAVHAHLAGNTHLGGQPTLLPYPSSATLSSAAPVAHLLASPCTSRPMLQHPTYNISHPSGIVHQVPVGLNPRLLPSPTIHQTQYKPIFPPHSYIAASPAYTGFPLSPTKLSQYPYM
measured quantity: pKd
Conceptually, pKd converts a concentration in mol/L into minus its log10.

# input Test system Homeodomain-interacting protein kinase 3 (Homo sapiens); read-out pKd; what value for "O=C1NC(Nc2ccccc2)=N/C1=C\c1ccc2c(c1)OCO2" ?
# output 6.64

====

target: Cyclin-dependent kinase 7/ cyclin H (Homo sapiens); experiment: Inhibition of human recombinant CDK7/cyclin H expressed in insect cell using YSPTSPSYSPTSPSYSPTSPSKKKK as substrate and [gamma33P]ATP after 30 mins by scintillation counting
Sequence (P51946 whole entry): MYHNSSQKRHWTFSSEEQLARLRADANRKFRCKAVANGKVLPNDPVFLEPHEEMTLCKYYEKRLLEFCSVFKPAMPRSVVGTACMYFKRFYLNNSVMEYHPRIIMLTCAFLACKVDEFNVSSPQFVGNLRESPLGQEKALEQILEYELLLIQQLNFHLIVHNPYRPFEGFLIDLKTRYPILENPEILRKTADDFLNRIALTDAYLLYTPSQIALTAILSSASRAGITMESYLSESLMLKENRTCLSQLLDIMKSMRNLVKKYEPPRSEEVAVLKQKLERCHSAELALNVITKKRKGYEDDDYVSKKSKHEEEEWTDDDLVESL
Sequence (P50613 whole entry): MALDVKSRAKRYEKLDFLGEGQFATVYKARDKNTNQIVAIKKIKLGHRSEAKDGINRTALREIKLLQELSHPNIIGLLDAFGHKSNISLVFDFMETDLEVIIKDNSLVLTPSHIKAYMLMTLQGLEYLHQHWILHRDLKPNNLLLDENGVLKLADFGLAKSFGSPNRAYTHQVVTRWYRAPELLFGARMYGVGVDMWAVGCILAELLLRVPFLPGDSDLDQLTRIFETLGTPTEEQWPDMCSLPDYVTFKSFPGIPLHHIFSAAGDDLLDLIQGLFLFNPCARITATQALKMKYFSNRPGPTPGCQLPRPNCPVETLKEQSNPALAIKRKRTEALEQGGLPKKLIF
pIC50: −log10 of the molar value.
measured quantity: pIC50

Worked cases, answers included:
O=C1NC(Nc2ccccc2)=N/C1=C\c1ccc2c(c1)OCO2 : < 5.00
CN1C(=O)/C(=C/c2ccc3c(c2)OCO3)N=C1N : < 5.00

Alright, here's another molecule for you.
# input For the molecule shown here, "COc1ccc2c(c1)[nH]c1c(C)nccc12" , give the reported pIC50.
# output < 5.00
